The values you see were collected from ChEMBL document CHEMBL1143246.

ASSAY_REMARKS: Inhibition of HCV polymerase
Design: species or system Hepacivirus hominis

STRUCTURE_STRING | IC50
CN(C)S(=O)(=O)N(C)[C@@H]1CCCn2c1nc(C(=O)NCc1ccc(F)cc1)c(O)c2=O | > 50 µM

* * *

ASSAY_SYSTEM: UniProt:P08684
Sequence (P08684 whole entry): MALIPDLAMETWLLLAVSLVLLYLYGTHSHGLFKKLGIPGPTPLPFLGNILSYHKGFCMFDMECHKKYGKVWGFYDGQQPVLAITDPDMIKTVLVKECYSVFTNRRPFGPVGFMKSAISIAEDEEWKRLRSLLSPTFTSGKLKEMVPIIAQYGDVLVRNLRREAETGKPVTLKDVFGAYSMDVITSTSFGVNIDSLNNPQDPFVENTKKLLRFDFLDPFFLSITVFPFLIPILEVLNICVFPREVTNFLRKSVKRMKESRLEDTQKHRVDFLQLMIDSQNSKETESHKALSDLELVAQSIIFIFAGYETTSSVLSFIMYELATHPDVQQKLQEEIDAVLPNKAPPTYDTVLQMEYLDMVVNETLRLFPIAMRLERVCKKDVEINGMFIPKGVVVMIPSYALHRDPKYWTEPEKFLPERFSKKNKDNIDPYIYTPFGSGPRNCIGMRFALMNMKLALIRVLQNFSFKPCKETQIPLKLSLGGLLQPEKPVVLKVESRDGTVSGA
pIC50: −log10 of the molar value.
QUANTITY_NAME: pIC50

STRUCTURE_STRING | RECORDED_MEASUREMENT
CN(C)C(=O)C(=O)N(C)[C@H]1CCCCn2c1nc(C(=O)NCc1ccc(F)cc1)c(O)c2=O | < 4.00

* * *

ASSAY_REMARKS: Plasma clearance in rhesus monkey at 2 mg/kg, iv or 10 mg/kg, po
Format: ADME, organism-based, Macaca mulatta
QUANTITY_NAME: clearance (mL/min/kg)

STRUCTURE_STRING | QUANTITY_NAME | RECORDED_MEASUREMENT
CN(C)C(=O)C(=O)N(C)[C@H]1CCCCn2c1nc(C(=O)NCc1ccc(F)cc1)c(O)c2=O | clearance | 8

* * *

Species: Homo sapiens
ASSAY_REMARKS: Protein binding in human plasma
EXPERIMENTAL_CONTEXT: read-out: PPB (converted)

MOLECULE | fraction unbound
CN(C)C(=O)C(=O)N(C)[C@H]1CCCn2c1nc(C(=O)NCc1ccc(F)cc1)c(O)c2=O | 0.37
CN(C(=O)CS(C)(=O)=O)C1CCCn2c1nc(C(=O)NCc1ccc(F)cc1)c(O)c2=O (racemic) | 0.3
CN(C)C(=O)C(=O)N(C)[C@H]1CCCCn2c1nc(C(=O)NCc1ccc(F)cc1)c(O)c2=O | 0.19
CN(C)S(=O)(=O)N(C)[C@H]1CCCn2c1nc(C(=O)NCc1ccc(F)cc1)c(O)c2=O | 0.13

* * *

System: Human immunodeficiency virus 1
ASSAY_REMARKS: Antiviral activity against HIV1 in human MT4 cell assessed as inhibition of virus spread in presence of 50% normal human serum
Type: functional
EXPERIMENTAL_CONTEXT: Human immunodeficiency virus 1, MT4; read-out: CIC95
QUANTITY_NAME: IC95 (nM)

COMPOUND | QUANTITY_NAME | COMPARATIVE_SIGN | RECORDED_MEASUREMENT
CN1CCN(S(=O)(=O)N(C)C2CCCn3c2nc(C(=O)NCc2ccc(F)cc2)c(O)c3=O)CC1 (racemic) | IC95 | = | 20
CN(C1CCCn2c1nc(C(=O)NCc1ccc(F)cc1)c(O)c2=O)S(=O)(=O)N1CCCC1 (racemic) | IC95 | = | 47
CN(C(=O)Cn1cccn1)C1CCCn2c1nc(C(=O)NCc1ccc(F)cc1)c(O)c2=O (racemic) | IC95 | > | 1000
Cc1nn(C)c(C)c1S(=O)(=O)N(C)C1CCCn2c1nc(C(=O)NCc1ccc(F)cc1)c(O)c2=O (racemic) | IC95 | = | 63

* * *

ASSAY_REMARKS: Plasma clearance in dog at 1 mg/kg, iv or 2 mg/kg, po
Format: ADME, organism-based, Canis lupus familiaris

STRUCTURE_STRING | clearance
CN(C)S(=O)(=O)N(C)[C@@H]1CCCn2c1nc(C(=O)NCc1ccc(F)cc1)c(O)c2=O | 3.8 mL/min/kg
CN(C)S(=O)(=O)N(C)[C@H]1CCCn2c1nc(C(=O)NCc1ccc(F)cc1)c(O)c2=O | 3.8 mL/min/kg
CN1CCN(S(=O)(=O)N(C)[C@H]2CCCn3c2nc(C(=O)NCc2ccc(F)cc2)c(O)c3=O)CC1 | 23 mL/min/kg
